Target: HIV-1 IAVI_C22 Env (HIV-1 strain IAVI C22)
Experiment: cell-based or functional assay
assay.readout: IC50 neutralization, 1 hour virus/Ab incubation
Number first, unit second: that is the form wanted.

Prompt: Which IC50 neutralization, 1 hour virus/Ab incubation value belongs to 1496_C09 (PG9) (TCN-109) (antibody, V domains shown) VH: QRLVESGGGVVQPGSSLRLSCAASGFDFSRQGMHWVRQAPGQGLEWVAFIKYDGSEKYHADSVWGRLSISRDNSKDTLYLQMNSLRVEDTATYFCVREAGGPDYRNGYNYYDFYDGYYNYHYMDVWGKGTTVTVSS VL: QSALTQPASVSGSPGQSITISCNGTSNDVGGYESVSWYQQHPGKAPKVVIYDVSKRPSGVSNRFSGSKSGNTASLTISGLQAEDEGDYYCKSLTSTRRRVFGTGTKLTVLG ?
Completion: 24.9 µg/mL

Origin of measurements: patent US20160264649A1
